target of assay: METTL3/METTL14 (Homo sapiens)
Construct: made in house; host or cells: Sf9 insect cells (baculovirus)
Sequence (Q86U44 whole entry): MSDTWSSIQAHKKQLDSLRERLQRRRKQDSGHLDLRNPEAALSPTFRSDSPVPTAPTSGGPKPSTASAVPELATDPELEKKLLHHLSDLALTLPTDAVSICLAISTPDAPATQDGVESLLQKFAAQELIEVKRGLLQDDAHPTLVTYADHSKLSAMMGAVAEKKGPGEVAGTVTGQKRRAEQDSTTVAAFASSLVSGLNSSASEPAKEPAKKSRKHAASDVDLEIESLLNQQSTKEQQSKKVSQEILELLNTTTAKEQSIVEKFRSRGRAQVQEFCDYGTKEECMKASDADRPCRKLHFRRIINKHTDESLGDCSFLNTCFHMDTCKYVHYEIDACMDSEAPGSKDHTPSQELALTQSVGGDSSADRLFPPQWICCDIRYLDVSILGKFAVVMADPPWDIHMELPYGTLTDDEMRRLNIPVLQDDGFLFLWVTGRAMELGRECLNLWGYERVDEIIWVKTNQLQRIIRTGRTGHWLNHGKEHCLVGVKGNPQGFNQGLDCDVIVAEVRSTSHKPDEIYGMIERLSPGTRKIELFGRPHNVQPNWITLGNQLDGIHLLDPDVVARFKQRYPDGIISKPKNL
Sequence (Q9HCE5 whole entry partner): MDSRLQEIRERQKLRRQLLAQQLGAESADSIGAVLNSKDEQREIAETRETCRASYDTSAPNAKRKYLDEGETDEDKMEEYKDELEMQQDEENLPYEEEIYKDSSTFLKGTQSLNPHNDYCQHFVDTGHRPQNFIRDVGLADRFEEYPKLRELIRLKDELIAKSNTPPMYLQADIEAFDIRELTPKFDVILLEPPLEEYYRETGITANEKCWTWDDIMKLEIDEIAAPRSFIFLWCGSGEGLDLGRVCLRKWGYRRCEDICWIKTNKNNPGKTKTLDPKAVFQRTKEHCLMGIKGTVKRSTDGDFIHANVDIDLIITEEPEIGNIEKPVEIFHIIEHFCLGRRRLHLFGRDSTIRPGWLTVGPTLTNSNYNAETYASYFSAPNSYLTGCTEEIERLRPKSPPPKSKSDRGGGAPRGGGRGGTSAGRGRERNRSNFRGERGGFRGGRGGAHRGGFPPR
protocol details: METTL3 enzymatic inhibition assay by homogeneous time-resolved fluorescence (HTRF)
Format: biochemical
reported conditions: HTRF assay, R isomer; read-out: IC50 (µM) R

{"columns": ["compound", "IC50"],
 "data": [
  ["CC1(C)CCN(Cc2ccc(C(=O)NCC3(O)CCCN(c4cc(NCc5ccccc5)ncn4)C3)cc2)CC1 (stereo not drawn) [compound 16]", "1.2 µM"],
  ["CC1(C)CCN(Cc2ccc3c(NCC4(O)CCCN(c5cc(NCc6ccccc6)ncn5)C4)cccc3c2)CC1 (stereo not drawn) [compound 46]", "0.2 µM"],
  ["O=C(NCC1(O)CCCN(c2cc(NCc3ccccc3)ncn2)C1)c1ccc(CN2CC3(CCC3)C2)cc1 (stereo not drawn) [compound 29]", "0.53 µM"]
]}
